studySystem: biotinylated human DLL3 protein expressed as a human IgG1 fusion protein (human) (UniProt Q9NYJ7)
Sequence (Q9NYJ7 other isoform, or with tags, fused parts or gaps): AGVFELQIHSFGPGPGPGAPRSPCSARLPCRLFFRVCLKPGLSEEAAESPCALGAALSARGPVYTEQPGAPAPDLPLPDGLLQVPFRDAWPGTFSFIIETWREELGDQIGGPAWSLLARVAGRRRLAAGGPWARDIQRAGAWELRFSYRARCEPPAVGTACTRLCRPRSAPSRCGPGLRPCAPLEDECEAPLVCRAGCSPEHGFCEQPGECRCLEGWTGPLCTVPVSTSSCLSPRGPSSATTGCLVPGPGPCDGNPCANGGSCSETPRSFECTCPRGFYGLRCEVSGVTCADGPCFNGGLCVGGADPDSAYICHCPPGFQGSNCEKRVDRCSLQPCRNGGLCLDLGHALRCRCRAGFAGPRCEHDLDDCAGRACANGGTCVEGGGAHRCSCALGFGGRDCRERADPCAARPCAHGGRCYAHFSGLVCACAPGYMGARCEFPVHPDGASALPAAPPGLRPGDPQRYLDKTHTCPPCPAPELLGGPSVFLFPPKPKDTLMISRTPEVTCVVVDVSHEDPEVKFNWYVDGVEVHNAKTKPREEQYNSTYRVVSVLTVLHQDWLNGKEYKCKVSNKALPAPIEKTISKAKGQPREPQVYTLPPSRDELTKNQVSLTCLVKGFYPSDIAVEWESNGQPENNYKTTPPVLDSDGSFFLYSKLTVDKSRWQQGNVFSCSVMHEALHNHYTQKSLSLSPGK
protocolSummary: Octet BLI; biotinylated huDLL3-IgG1 fusion on streptavidin tips; single 50 nM; conditioned medium
experimentalReadout: pKd
// pKd is dimensionless: -log10 of concentration (M)

1) anti-DLL3 trispecific protein 1H012 (protein, part only; not given: anti-CD3 fragment and anti-albumin sdAb, part only) chain, part: EVQLVESGGGLVQPGGSLTLSCVASGSTSSINAMGWYRRAPGKQRELVAGISSDGSKVYVDSVKGRFTISRDNAKNSVYLQMNSLRAEDTAVYYCYYFRTVSGSSMPYWGQGTLVTVSSGGGGSGGGSGGGGSGGGSHHHHHH : 8.46
2) anti-DLL3 trispecific protein 2D03 (protein, part only; not given: anti-CD3 and anti-albumin domains, part only) chain, part: EVQLVESGGGLVQPGGSLTLSCVASGKTSSINAMGWYRRAPGKQRELVAGISSDGSKVYADSVKGRFTISRDNAKNSVYLQMNSLRAEDTAVYYCYYFRTVSGVSMRYWGQGTLVTVSSGGGGSGGGSGGGGSGGGSHHHHHH : 8.17
3) anti-DLL3 trispecific protein 1C05 (protein, part only; not given: CD3 binder and albumin binder, part only) chain, part: EVQLVESGGGLVQPGGSLTLSCVASGSTSSINAMAWYRRAPGKQRELVAGISSDGSKVYADSVKGRFTISRDNAKNSVYLQMNSLRAEDTAVYYCYYFRTVSGSHMRYWGQGTLVTVSSGGGGSGGGSGGGGSGGGSHHHHHH : 8.28

Please report the recorded pKd for anti-DLL3 trispecific protein 2G09 (protein, part only; not given: CD3 fragment and albumin sdAb, part only) chain, part: EVQLVESGGGLVQPGGSLTLSCVASGSTSSINAMGWYRRAPGKQRELVAGVSSDGSKVYADSVKGRFTISRDNAKNSVYLQMNSLRAEDTAVYYCYYFRTVSGSSARYWGQGTLVTVSSGGGGSGGGSGGGGSGGGSHHHHHH .
8.10

These measurements were taken from patent US20200095340A1.
